- System: Staphylococcus aureus
- assay: Ratio of MBC to MIC for Staphylococcus aureus CIP 54127
- Type: functional
quantity: Ratio
One number for each entry.

Provide each entry's Ratio from the list below.
1. CCOP(=O)(OCC)C(Nc1ccccc1)c1cc(Cn2cc(Cn3c(=O)cc(C)c4ccccc43)nn2)ccc1O (stereo unspecified)
2. CC1(C)S[C@@H]2[C@H](NC(=O)[C@H](N)c3ccccc3)C(=O)N2[C@H]1C(=O)O [AMPICILLIN]
3. Cc1cc(=O)n(Cc2cn(Cc3ccc(O)c(C=O)c3)nn2)c2ccccc12
4. CCOP(=O)(OCC)C(Nc1ccccc1OC)c1cc(Cn2cc(Cn3c(=O)cc(C)c4ccccc43)nn2)ccc1O (stereo unspecified)
5. CCOP(=O)(OCC)C(Nc1ccccc1OC)c1cc(Cn2cc(Cn3c(=O)cc(C)c4cc(F)ccc43)nn2)ccc1O (stereo unspecified)
6. CCOP(=O)(OCC)C(Nc1ccccc1Br)c1cc(Cn2cc(Cn3c(=O)cc(C)c4ccccc43)nn2)ccc1O (stereo unspecified)

result:
1: 2.02; 2: 1; 3: 1; 4: 1.92; 5: 1.96; 6: 1
